These entries and their values trace back to patent US10159655B2.

Attribute: inhibition at 300 µM
- System: olfactory receptor OR5K1 (Homo sapiens)
- Construct: expressed in transfected cells; host or cells: HEK293
- Test Summary: Antagonistic activity against OR5K1: inhibition of the receptor response to 2,6-dimethylpyrazine (luciferase assay, HEK293 cells)
- Type: cell-based
- Experimental Setup: 2,6-dimethylpyrazine 1 mM + test substance 300 μM, cytotoxic flavoring agents re-evaluated at 333 μM 2,6-dimethylpyrazine + 100 μM test substance, read-out: Inhibition rate (receptor response-inhibiting rate)

Would you please look over these solved cases?
CC(C=O)C1CCCCC1 (stereo not shown) ... ≥ 50%
CCCCCC1=C(C)CCC1=O ... ≥ 40%
CC(=O)O[C@]1(C)CC[C@@]23C[C@@H]1C(C)(C)[C@@H]2CC[C@H]3C [cedryl acetate] ... ≥ 50%
CC1(C)CCCC2(C)C1CCC1(C)OCCC12 (stereo not shown) ... ≥ 50%
CCOCOC1CCCCCCCCCCC1 ... ≥ 50%
CC(C)=CCCC(C)=CC=O ... ≥ 75%
CC(=CCC1CC=C(C)C1(C)C)CO (stereo not shown) ... ≥ 50%
CC(C)CCCC(C)CCO (stereo not shown) ... ≥ 50%
CC(C)=CCCC(C)CC=O (stereo not shown) ... ≥ 50%
CCC(O)COC1CCCCC1C(C)(C)C (stereo not shown) ... ≥ 75%

Ask | I would be grateful if you could share the reported inhibition at 300 µM for CC(=O)c1cc2c(cc1C)C(C)(C)C(C)CC2(C)C (stereo not shown) .
Reply | ≥ 75%

Ask | I would be grateful if you could share the reported inhibition at 300 µM for O=C(OCCc1ccccc1)c1ccccc1O [phenylethyl salicylate] .
Reply | ≥ 75%

Ask | I would be grateful if you could share the reported inhibition at 300 µM for CC(C)=CCCC(C)CCOCC=O (stereo not shown) .
Reply | ≥ 40%

Ask | I would be grateful if you could share the reported inhibition at 300 µM for CC(C=O)Cc1ccc(C(C)(C)C)cc1 (stereo not shown) .
Reply | ≥ 50%

====

- System: olfactory receptor OR5K1 (Homo sapiens, UniProt Q8NHB7)
- Construct: expressed in transfected cells; host or cells: HEK293
- Sequence (Q8NHB7 whole entry): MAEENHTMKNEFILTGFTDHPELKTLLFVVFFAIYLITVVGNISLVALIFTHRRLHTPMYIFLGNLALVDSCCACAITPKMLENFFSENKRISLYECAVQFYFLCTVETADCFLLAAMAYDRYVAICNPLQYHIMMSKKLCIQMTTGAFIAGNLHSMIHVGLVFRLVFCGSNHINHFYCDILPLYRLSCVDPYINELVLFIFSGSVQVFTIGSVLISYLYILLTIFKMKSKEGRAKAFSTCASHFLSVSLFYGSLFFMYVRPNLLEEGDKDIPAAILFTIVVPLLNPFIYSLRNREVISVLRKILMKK
- Test Summary: Antagonistic activity against OR5K1: inhibition of the receptor response to 2,6-dimethylpyrazine (luciferase assay, HEK293 cells)
- Type: cell-based
- Experimental Setup: 2,6-dimethylpyrazine 1 mM + test substance 300 μM, cytotoxic flavoring agents re-evaluated at 333 μM 2,6-dimethylpyrazine + 100 μM test substance, read-out: Inhibition rate (receptor response-inhibiting rate)
Attribute: inhibition at 300 µM

Ask | I would be grateful if you could share the reported inhibition at 300 µM for CC(C)=CCC/C(C)=C/CO [(E)-3,7-dimethyl-2,6-octadien-1-ol] .
Reply | ≥ 40%

Ask | I would be grateful if you could share the reported inhibition at 300 µM for CC(C)[C@H]1CC[C@@H](CO)CC1 [cis-4-isopropylcyclohexylmethanol] .
Reply | ≥ 40%

====

- System: olfactory receptor OR5K1 (Homo sapiens)
- Construct: expressed in transfected cells; host or cells: HEK293
- Test Summary: Antagonistic activity against OR5K1: inhibition of the receptor response to 2,6-dimethylpyrazine (luciferase assay, HEK293 cells)
- Type: cell-based
- Experimental Setup: 2,6-dimethylpyrazine 1 mM + test substance 300 μM, cytotoxic flavoring agents re-evaluated at 333 μM 2,6-dimethylpyrazine + 100 μM test substance, read-out: Inhibition rate (receptor response-inhibiting rate)
- Method: The receptor response-inhibiting rate of a test substance was calculated as follows. The receptor activity (X-Y) by stimulation with 2,6-dimethylpyrazine alone was determined by subtracting the luminescence value (Y) in cells to which the receptor was introduced but were not stimulated with 2,6-dimethylpyrazine from the luminescence value (X) derived from firefly luciferase induced by stimulation with 2,6-dimethylpyrazine alone. […]
Attribute: inhibition at 300 µM

CC(C=O)Cc1ccc(C(C)C)cc1 (stereo not drawn) ... ≥ 75%

Ask | I would be grateful if you could share the reported inhibition at 300 µM for `CC=CC(=O)C1=C(C)C=CCC1(C)C` .
Reply | ≥ 40%

Ask | I would be grateful if you could share the reported inhibition at 300 µM for `CC=Cc1ccc(OCc2ccccc2)c(OC)c1` .
Reply | ≥ 50%

Ask | I would be grateful if you could share the reported inhibition at 300 µM for CCCCCCOC(=O)c1ccccc1O [hexyl salicylate] .
Reply | ≥ 40%

Ask | I would be grateful if you could share the reported inhibition at 300 µM for CC(=O)C1=C(C)C2CC3(C1)C(C)CCC3C2(C)C (stereo not drawn) .
Reply | ≥ 50%

Ask | I would be grateful if you could share the reported inhibition at 300 µM for Cc1ccc(C(C)C)c(O)c1 [5-methyl-2-(1-methylethyl)-phenol] .
Reply | ≥ 75%
